Parameter: apparent Kd (screen). Scope: all listed entries.
- experimental target: T1, TNFR1 (Homo sapiens, UniProt P19438)
- T1 chain: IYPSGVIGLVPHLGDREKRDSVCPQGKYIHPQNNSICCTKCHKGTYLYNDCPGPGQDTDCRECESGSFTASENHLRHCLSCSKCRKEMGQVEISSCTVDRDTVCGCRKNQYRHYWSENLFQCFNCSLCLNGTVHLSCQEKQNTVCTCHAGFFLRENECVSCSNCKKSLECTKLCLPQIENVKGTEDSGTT
- method notes: yeast display SC50
Unit nM implied. Number only.

binder	measure unit	apparent Kd (screen)
K107E (designed binder) SMEEEVEKAAKEYEKKKKEAIEKHLEKLKAKDKEAAERFLKELEEAAKEYAKDEAKTMSEEEAKRRAKKYKEKVLLSELSEEEQKEIKEAEEKLVRTILKYVEEAAE	nM	1.54
E91T (designed binder) SMEEEVEKAAKEYEKKKKEAIEKHLEKLKAKDKEAAERFLKELEEAAKEYAKDEAKTMSEEEAKRRAKKYKEKVLLSELSEEEQKEIKEATEKLVRTILKYVEEAAK	nM	7.07
L79P (designed binder) SMEEEVEKAAKEYEKKKKEAIEKHLEKLKAKDKEAAERFLKELEEAAKEYAKDEAKTMSEEEAKRRAKKYKEKVLLSEPSEEEQKEIKEAEEKLVRTILKYVEEAAK	nM	7.78
V95G (designed binder) SMEEEVEKAAKEYEKKKKEAIEKHLEKLKAKDKEAAERFLKELEEAAKEYAKDEAKTMSEEEAKRRAKKYKEKVLLSELSEEEQKEIKEAEEKLGRTILKYVEEAAK	nM	5.84

Enquiry: What does the record list as apparent Kd (screen) for I21H (designed binder) SMEEEVEKAAKEYEKKKKEAHEKHLEKLKAKDKEAAERFLKELEEAAKEYAKDEAKTMSEEEAKRRAKKYKEKVLLSELSEEEQKEIKEAEEKLVRTILKYVEEAAK ?
Return: 1.05

Enquiry: Can you handle A10I (designed binder) SMEEEVEKAIKEYEKKKKEAIEKHLEKLKAKDKEAAERFLKELEEAAKEYAKDEAKTMSEEEAKRRAKKYKEKVLLSELSEEEQKEIKEAEEKLVRTILKYVEEAAK next?
Return: 0.446

Enquiry: Can you handle K8L (designed binder) SMEEEVELAAKEYEKKKKEAIEKHLEKLKAKDKEAAERFLKELEEAAKEYAKDEAKTMSEEEAKRRAKKYKEKVLLSELSEEEQKEIKEAEEKLVRTILKYVEEAAK next?
Return: 0.718

Enquiry: Can you handle A90K (designed binder) SMEEEVEKAAKEYEKKKKEAIEKHLEKLKAKDKEAAERFLKELEEAAKEYAKDEAKTMSEEEAKRRAKKYKEKVLLSELSEEEQKEIKEKEEKLVRTILKYVEEAAK next?
Return: 0.956
